# Protocol: Bidirectional transport of API and TMS-NLCs across cell monolayers
# Assay type: in vitro ADME, canine
# Experimental Context: dog; MDCK; without verapamil; read-out: ER
# Description: MDCK and MDCK-chAbcg2/Abcb1 cells were seeded on 12-well Transwell® polycarbonate inserts at a density of 2 × 10^5 cells per well to constitute in vitro cell monolayer models. The apical side (AP) of the insert was filled with 0.5 mL medium, and the basolateral (BL) side was filled with 1.5 mL medium. The medium was replaced every two days. It took 5~7 days to form an intact cell monolayer. The permeability efficiency was evaluated by comparing the bidirectional transport between API and TMS-NLCs. […]
Measurement Name: efflux ratio at 4 h, 10 µg/mL
Hey, just send me the number, nothing else.

Provide measured efflux ratio at 4 h, 10 µg/mL value, entry: `CC[C@H]1OC(=O)C[C@@H](O)[C@H](C)[C@@H](O[C@@H]2O[C@H](C)[C@@H](O)[C@H](N(C)C)[C@H]2O)[C@@H](CCN2C[C@H](C)C[C@H](C)C2)C[C@@H](C)C(=O)/C=C/C(C)=C/[C@@H]1CO[C@@H]1O[C@H](C)[C@@H](O)[C@@H](OC)[C@H]1OC`
1.27
